- studySystem: T1, human IL6R (human, UniProt P08887 20-358, limits assumed)
- T1 construct: Antigen of the Biacore experiments
- T1 sequence (looked up): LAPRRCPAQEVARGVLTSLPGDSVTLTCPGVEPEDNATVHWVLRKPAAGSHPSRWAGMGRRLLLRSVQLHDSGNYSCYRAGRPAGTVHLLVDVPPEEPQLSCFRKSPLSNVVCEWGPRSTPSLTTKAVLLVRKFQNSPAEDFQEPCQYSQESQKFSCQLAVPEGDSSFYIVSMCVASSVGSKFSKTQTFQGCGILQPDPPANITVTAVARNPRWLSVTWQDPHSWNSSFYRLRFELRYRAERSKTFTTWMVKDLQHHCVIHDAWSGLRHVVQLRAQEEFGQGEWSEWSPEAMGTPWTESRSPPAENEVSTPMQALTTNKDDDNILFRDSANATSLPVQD
- assaySummary: SPR (Biacore), periplasmic extract
measure: koff (s⁻¹)
Kindly answer with a numeric value in s⁻¹, unit omitted.

32C9PMP1_G11 (VHH, name in Kabat numbering, Humanized 32C9 variant) VHH: EVQLVESGGGLVQAGGSLRLSCAASGFTFSDYDIGWFRQAPGKGREGVSGISSSDGNTYYADSVKGRFTISSDNAKNTVYLQMNSLRPEDTAVYYCAAEPPDSSWYLDGSPEFFKYWGQGTLVTVSS : 0.000204

Note: attention shifts to another entry.
koff reading for 32C9PMP1_B5 (VHH, name in Kabat numbering, Humanized 32C9 variant) VHH: EVQLVESGGGLVQPGGSLRLSCAASGFTFSDYDIGWFRQAPGKEREWVSGISSSDGNTYYADSVKGRFTISRDNAKNTLYLQMNSLRPEDTAVYYCAAEPPDSSWYLDGSPEFFKYWGQGTQVTVSS : 0.00196
